# System: RXF 393
# test_description: NCI tumour cell line growth inhibition, 48 h
Active and inactive are the calls of the source. Rule as the data show it: active = GI50 up to about 1.1 µM and inactive = higher.
parameter: GI50

Some molecules with recorded GI50:
O=[N+]([O-])c1cnc(N(CCO)CCO)s1
> 100 µM (inactive)
CCCN1CN(C(C(=O)N[C@@H]2C(=O)N3C(C(=O)O)=C(C)CSC23)c2ccccc2)CSC1=S (stereo partly specified)
25.9 µM (inactive)
Cn1c(=S)c2nc(SCCCc3ccccc3)[nH]c2n(C)c1=O
56.5 µM (inactive)
CC(=O)/C=C/C1=C(C)CCCC1(C)CC(C)C (stereo unspecified)
14.8 µM (inactive)

For every listed record, write down its GI50.
1. O=C(O)NC(c1ccccc1)C(NC(=O)c1ccccc1)c1ccccc1 (stereo unspecified)
2. COc1cc2c(cc1O)C1Cc3ccc(OC)c(O)c3C(C2)N1C (stereo unspecified)

[reply]
> 100 µM (inactive)
> 100 µM (inactive)

---

# Test system: PC-3
# test_description: NCI tumour cell line growth inhibition, 48 h
Active and inactive are the calls of the source. Rule as the data show it: active = GI50 up to about 1.1 µM and inactive = higher.
Thanks in advance; please answer with one of these: active, inactive

COC(=O)[C@@]1(Cc2ccc(O)cc2)C[C@@H]2Cc3ccccc3N2N1
inactive

[ask] Short answer needed: outcome of this test for C=C1CC(C)(COc2ccc3ccc(=O)oc3c2)OC1=O (stereo unspecified) ?
[reply] inactive

[ask] Short answer needed: outcome of this test for `O=C(OCc1ccccc1)N1CCCc2c(n(S(=O)(=O)c3ccccc3)c3ccccc23)C1` ?
[reply] inactive

[ask] Short answer needed: outcome of this test for C#CCOC(=O)C(N)CS (stereo unspecified) ?
[reply] inactive

[ask] Short answer needed: outcome of this test for `CSc1c(C(=O)Nc2ccccc2)c(N)nn1-c1ccccc1` ?
[reply] inactive

[ask] Short answer needed: outcome of this test for `C/C(=N\NC(=S)N1CCN(C2CCCCCC2)CC1)c1ccccn1` ?
[reply] active

[ask] Short answer needed: outcome of this test for CC(=O)/C=C/C1=C(C)CCCC1(C)CC(C)C (stereo unspecified) ?
[reply] inactive

[ask] Short answer needed: outcome of this test for `CN1/C(=C\N=O)C(C)(C)N(O)C1(C)C` ?
[reply] inactive

[ask] Short answer needed: outcome of this test for CC(C)CC(C(N)=O)C(=O)NC(Cc1ccccc1)NC(=O)CNC(=O)C(C)NC(=O)C(N)Cc1ccc(O)cc1 (stereo unspecified) ?
[reply] inactive

[ask] Short answer needed: outcome of this test for `CN(C)CCNCCN` ?
[reply] inactive

[ask] Short answer needed: outcome of this test for COc1ccc(C2C=C(c3ccc(C)cc3)N(c3ccc(OC)cc3[N+](=O)[O-])C3C(=O)OC(=O)C23)c(OC)c1 (stereo unspecified) ?
[reply] inactive

---

# Test system: SF-539
# test_description: NCI tumour cell line growth inhibition, 48 h
Activity calls are given as the source filed them. No stated cut-off is given here; in the data, active = GI50 up to about 1.1 µM and inactive = higher.
parameter: GI50

Some compounds with recorded GI50:
COc1cc([C@@H]2Oc3cc4oc(-c5ccccc5)cc(=O)c4c(O)c3O[C@H]2OC)ccc1O
15 µM (inactive)
CCOC(=O)C(C(=O)OCC)P(=S)(S)c1ccccc1 (stereo unspecified)
> 100 µM (inactive)
Nn1c(=S)[nH]nc(/C=C/c2c(O)ccc3ccccc23)c1=O
19.3 µM (inactive)
Cc1cc(NN)nc2[nH]nc(N)c12
> 100 µM (inactive)
C=C(CN(C)C)C(=O)c1ccccc1OC
15.6 µM (inactive)

[ask] Missing value: GI50, SF-539, entry `NCCN1CCCCCc2ccccc21` . Fill in?
[reply] > 10 µM (inactive)
